# assay: FAERS disproportionality analysis
# experimentalParameters: FAERS Nov 1997 to March 31, 2015; ventricular arrhythmia; EB05 > 2 = signal
# strict inequality: EB05 VA < 3 yields Condition met, everything else yields Condition not met

Example results:
* O=C(NCC1CCCCN1)c1cc(OCC(F)(F)F)ccc1OCC(F)(F)F (stereo not drawn) [FLECAINIDE] | Condition not met
* Cc1nc2n(c(=O)c1CCN1CCC(c3noc4cc(F)ccc34)CC1)CCCC2 | Condition met
* CC(C)NCC(O)c1ccc(NS(C)(=O)=O)cc1 (racemic) | Condition not met
* CN(CCOc1ccc(NS(C)(=O)=O)cc1)CCc1ccc(NS(C)(=O)=O)cc1 [DOFETILIDE] | Condition not met
* COc1ccc(CCN2CCC(Nc3nc4ccccc4n3Cc3ccc(F)cc3)CC2)cc1 | Condition met
* COc1ccccc1OCC(O)CN1CCN(CC(=O)Nc2c(C)cccc2C)CC1 (stereo not drawn) | Condition met
* COc1cc(N)c(Cl)cc1C(=O)NC1CCN(CCCOc2ccc(F)cc2)CC1OC (stereo not drawn) [CISAPRIDE] | Condition not met
* CCOC(=O)N1CCC(=C2c3ccc(Cl)cc3CCc3cccnc32)CC1 | Condition met
* CN(C)CCCN1c2ccccc2Sc2ccc(Cl)cc21 | Condition met
* COc1ccc([C@@H]2Sc3ccccc3N(CCN(C)C)C(=O)[C@@H]2OC(C)=O)cc1 | Condition met

# input for lookup
Report whether reported EB05 VA is lower than 3 (strictly) for Cc1nccn1CC1CCc2c(c3ccccc3n2C)C1=O (stereo not drawn)
Condition met
